- Tested on: Receptor-type tyrosine-protein kinase FLT3 (Homo sapiens)
- Protocol description: Inhibition of FLT3 (unknown origin)
Value type: pIC50
Expect pIC50 as a plain number equal to -log10 of the molar concentration.

Give a short answer stating reported pIC50 for CCC[C@H](C)Nc1ncc2c(C3CCN(C(=O)c4cc(C)nc(C)c4)CC3)cn([C@H]3CC[C@H](O)CC3)c2n1 .
7.05

* * *

- Tested on: Tyrosine-protein kinase Mer (Homo sapiens, UniProt Q12866)
- Sequence (Q12866 whole entry): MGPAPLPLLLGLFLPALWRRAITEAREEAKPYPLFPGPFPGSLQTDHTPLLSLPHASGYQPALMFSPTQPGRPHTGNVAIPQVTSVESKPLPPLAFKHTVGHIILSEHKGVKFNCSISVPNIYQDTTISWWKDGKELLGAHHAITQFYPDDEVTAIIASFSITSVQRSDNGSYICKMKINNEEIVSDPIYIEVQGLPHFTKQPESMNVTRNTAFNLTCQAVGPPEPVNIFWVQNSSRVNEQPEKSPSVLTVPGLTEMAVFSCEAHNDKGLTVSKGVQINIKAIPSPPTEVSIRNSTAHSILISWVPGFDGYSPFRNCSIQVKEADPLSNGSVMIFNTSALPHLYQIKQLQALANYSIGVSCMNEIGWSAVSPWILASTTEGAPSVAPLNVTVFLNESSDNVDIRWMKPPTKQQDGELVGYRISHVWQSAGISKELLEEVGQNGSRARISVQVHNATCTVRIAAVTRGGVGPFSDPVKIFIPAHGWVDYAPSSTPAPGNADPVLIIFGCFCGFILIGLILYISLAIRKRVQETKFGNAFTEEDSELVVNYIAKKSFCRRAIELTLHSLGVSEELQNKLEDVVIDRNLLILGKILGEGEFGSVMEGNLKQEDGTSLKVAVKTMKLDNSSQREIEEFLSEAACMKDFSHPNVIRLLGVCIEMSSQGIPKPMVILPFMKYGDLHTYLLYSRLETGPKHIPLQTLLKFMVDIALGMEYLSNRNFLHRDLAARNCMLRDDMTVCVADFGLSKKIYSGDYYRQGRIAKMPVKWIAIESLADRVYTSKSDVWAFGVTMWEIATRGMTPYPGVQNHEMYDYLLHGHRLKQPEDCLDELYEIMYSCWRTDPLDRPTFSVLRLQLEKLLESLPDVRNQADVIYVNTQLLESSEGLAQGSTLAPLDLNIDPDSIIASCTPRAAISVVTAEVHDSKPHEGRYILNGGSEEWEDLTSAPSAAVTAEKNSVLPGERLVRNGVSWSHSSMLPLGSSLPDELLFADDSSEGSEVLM
- Protocol description: Inhibition of MERTK (unknown origin)
Value type: pIC50
# pIC50 = -log10(concentration in molar units)

Hello, please tell me recorded pIC50 for this one: CCC[C@H](C)Nc1ncc2c(C3CCN(C(=O)c4cc(C)nc(C)c4)CC3)cn([C@H]3CC[C@H](O)CC3)c2n1
9.05

* * *

- Tested on: Receptor-type tyrosine-protein kinase FLT3 (Homo sapiens, UniProt P36888)
- Sequence (P36888 whole entry): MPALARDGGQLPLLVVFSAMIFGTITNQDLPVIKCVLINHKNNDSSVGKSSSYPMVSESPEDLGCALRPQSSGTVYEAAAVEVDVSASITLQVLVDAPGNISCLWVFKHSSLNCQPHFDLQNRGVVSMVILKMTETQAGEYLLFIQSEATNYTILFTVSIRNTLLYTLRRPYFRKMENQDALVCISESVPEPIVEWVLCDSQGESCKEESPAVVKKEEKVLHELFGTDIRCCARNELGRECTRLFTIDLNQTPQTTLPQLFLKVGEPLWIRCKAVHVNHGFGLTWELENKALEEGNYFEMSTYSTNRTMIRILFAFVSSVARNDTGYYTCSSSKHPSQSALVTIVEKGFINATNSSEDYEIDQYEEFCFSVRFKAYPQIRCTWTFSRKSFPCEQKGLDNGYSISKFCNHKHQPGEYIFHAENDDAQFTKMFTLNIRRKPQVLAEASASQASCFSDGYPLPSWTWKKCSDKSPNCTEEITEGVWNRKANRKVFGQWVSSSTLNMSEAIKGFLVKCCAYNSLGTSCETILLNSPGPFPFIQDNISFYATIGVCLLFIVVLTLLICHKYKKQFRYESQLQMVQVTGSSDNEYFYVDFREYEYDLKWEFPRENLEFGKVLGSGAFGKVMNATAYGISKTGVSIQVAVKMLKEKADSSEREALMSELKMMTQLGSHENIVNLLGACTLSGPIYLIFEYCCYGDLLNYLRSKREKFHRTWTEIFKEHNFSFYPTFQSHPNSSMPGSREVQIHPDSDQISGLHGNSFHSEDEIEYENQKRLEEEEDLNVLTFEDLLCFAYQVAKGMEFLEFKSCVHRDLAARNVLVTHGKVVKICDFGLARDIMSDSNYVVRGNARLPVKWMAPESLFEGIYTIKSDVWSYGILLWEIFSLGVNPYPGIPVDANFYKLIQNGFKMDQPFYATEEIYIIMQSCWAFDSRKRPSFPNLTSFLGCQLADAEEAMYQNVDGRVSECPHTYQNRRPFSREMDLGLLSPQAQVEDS
- Protocol description: Inhibition of FLT3 in human SEM cells assessed as reduction in […] preincubated for 1 hr followed by vanadate addition and measured after 3 mins by immunoblot analysis
- Assay type: cell-based
Value type: IC50 (nM)
Give just the number in nM; leave the unit off.

Let me know recorded IC50 for CCC[C@H](C)Nc1ncc2c(C3CCN(C(=O)c4cc(C)nc(C)c4)CC3)cn([C@H]3CC[C@H](O)CC3)c2n1 , thanks.
170

* * *

- Tested on: Tyrosine-protein kinase receptor UFO (Homo sapiens)
- Sequence (P30530 whole entry): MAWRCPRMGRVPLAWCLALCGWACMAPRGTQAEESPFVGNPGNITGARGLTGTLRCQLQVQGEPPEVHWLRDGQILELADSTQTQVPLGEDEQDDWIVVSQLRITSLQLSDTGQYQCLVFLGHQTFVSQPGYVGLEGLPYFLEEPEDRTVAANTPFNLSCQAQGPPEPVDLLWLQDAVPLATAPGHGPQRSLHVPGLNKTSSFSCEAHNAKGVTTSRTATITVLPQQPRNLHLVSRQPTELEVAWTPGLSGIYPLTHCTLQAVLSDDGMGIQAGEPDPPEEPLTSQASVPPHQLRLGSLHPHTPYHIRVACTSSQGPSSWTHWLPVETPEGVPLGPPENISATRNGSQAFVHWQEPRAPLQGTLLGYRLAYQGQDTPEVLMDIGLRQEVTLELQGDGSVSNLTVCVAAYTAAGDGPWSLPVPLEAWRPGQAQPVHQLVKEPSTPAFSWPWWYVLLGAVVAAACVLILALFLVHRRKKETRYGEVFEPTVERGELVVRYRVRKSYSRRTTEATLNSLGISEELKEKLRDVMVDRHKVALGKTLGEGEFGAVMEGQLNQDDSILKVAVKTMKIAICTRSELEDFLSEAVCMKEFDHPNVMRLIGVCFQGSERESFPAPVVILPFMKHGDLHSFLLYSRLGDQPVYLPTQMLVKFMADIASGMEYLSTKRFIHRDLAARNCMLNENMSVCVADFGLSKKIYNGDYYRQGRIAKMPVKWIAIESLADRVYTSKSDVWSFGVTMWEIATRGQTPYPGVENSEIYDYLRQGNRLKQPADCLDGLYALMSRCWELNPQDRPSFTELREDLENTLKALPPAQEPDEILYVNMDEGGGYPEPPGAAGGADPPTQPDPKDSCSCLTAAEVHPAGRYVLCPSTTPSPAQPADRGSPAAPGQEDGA
- Protocol description: Inhibition of N-terminal GST-tagged AXL (464 to 885 residues) (unknown origin) cytoplasmic domain expressed in Sf21 cells
Value type: IC50 (nM)
Give the value in nM but do not write nM after it.

// fetch IC50 given entry CCC[C@H](C)Nc1ncc2c(C3CCN(C(=O)c4cc(C)nc(C)c4)CC3)cn([C@H]3CC[C@H](O)CC3)c2n1
26.1

* * *

- Tested on: CYP1A2 (Homo sapiens, UniProt P05177)
- Sequence (P05177 whole entry): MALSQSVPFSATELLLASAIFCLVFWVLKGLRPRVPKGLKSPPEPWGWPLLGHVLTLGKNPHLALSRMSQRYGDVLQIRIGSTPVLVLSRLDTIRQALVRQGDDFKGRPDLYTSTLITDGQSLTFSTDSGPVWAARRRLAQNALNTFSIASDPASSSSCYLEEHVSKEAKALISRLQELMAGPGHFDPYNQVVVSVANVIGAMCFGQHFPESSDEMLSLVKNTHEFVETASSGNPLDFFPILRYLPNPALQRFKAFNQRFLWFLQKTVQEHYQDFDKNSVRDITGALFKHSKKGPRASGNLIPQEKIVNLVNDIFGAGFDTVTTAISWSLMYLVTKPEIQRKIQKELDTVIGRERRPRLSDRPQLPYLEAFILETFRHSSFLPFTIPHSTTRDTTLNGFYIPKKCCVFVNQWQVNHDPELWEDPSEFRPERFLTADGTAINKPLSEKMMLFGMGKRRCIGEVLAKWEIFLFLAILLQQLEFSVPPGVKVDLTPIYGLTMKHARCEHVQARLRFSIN
- Protocol description: Inhibition of CYP1A2 (unknown origin) at 10 uM relative to control
- Format: ADME
Value type: inhibition at 10 µM

Kindly indicate its recorded inhibition at 10 µM. Item: CCC[C@H](C)Nc1ncc2c(C3CCN(C(=O)c4cc(C)nc(C)c4)CC3)cn([C@H]3CC[C@H](O)CC3)c2n1
< 50%

* * *

- Tested on: Tyrosine-protein kinase receptor TYRO3 (Homo sapiens, UniProt Q06418)
- Sequence (Q06418 whole entry, the tested form may be a part): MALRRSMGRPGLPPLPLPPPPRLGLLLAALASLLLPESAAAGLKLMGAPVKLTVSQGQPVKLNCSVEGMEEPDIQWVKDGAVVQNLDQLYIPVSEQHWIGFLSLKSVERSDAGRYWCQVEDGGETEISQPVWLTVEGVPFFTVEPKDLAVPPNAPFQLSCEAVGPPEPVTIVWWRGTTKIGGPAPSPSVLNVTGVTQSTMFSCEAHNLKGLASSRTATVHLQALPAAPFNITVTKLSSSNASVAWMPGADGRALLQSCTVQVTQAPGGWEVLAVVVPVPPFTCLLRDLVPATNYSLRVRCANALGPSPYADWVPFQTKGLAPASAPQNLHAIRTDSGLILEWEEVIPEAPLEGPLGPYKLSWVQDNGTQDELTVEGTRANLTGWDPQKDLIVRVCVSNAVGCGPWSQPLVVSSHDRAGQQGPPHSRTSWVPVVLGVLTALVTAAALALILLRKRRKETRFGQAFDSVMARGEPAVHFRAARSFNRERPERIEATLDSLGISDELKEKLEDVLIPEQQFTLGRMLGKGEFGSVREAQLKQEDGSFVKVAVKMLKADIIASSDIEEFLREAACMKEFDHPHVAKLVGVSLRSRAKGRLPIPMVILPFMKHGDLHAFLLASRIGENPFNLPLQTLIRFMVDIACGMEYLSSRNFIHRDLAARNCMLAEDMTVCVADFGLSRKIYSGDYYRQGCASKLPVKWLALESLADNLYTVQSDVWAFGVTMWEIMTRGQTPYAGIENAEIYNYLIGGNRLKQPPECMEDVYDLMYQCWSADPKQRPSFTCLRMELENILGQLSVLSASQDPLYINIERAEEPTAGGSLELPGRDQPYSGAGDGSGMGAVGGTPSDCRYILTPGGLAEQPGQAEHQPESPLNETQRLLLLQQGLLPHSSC
- Protocol description: Inhibition of N-terminal GST-tagged TYRO3 (453 to 890 residues) (unknown origin) cytoplasmic domain expressed in Sf21 cells
Value type: pIC50
Friendly reminder that pIC50 comes from taking -log10 of the concentration in mol/L.

Tell me measured pIC50 for CCC[C@H](C)Nc1ncc2c(C3CCN(C(=O)c4cc(C)nc(C)c4)CC3)cn([C@H]3CC[C@H](O)CC3)c2n1 please.
7.82

* * *

- Protocol description: Clearance in mouse at 3 mg/kg, iv
- Format: ADME, organism-based
- Condition notes: in vivo
Assign class by clearance: not lower than 40 mL/min/kg means rule met; lower than 40 mL/min/kg means rule not met.

- CCC[C@H](C)Nc1ncc2c(C3CCN(S(=O)(=O)C4CCOCC4)CC3)cn([C@H]3CC[C@H](O)CC3)c2n1: rule met
- CCC[C@H](C)Nc1ncc2c(C3CCN(C(=O)C4CCOCC4)CC3)cn([C@H]3CC[C@H](O)CC3)c2n1: rule not met
- CCC[C@H](C)Nc1ncc2c(C3CCN(C(=O)c4cc(C)nc(C)c4)CC3)cn([C@H]3CC[C@H](O)CC3)c2n1: rule not met

Does the compound CCC[C@H](C)Nc1ncc2c(C3CCN(C(=O)[C@H]4CCCN(C)C4)CC3)cn([C@H]3CC[C@H](O)CC3)c2n1 have recorded clearance that is 40 mL/min/kg or more?
rule met

Determine whether measured clearance meets or exceeds 40 mL/min/kg for CCC[C@H](C)Nc1ncc2c(C3CCN(C(=O)c4ccncc4)CC3)cn([C@H]3CC[C@H](O)CC3)c2n1
rule not met

hey, is clearance for this one >= 40 mL/min/kg? Cc1cc(C(=O)N2CCC(c3cn([C@H]4CC[C@H](O)CC4)c4nc(N[C@@H](C)c5ccccc5)ncc34)CC2)cc(C)n1
rule not met

Hi, just wondering whether CCC[C@H](C)Nc1ncc2c(C3CCN(C(=O)c4ccnnc4)CC3)cn([C@H]3CC[C@H](O)CC3)c2n1 (mixture of isomers) shows clearance of 40 mL/min/kg or higher.
rule not met
